assay: Human HepG2 cell viability assay in 384 well format; format: toxicity, cell-based; set-up: dose 125 nL, time 70.5 hour; concentration not given beside the values; settings: HepG2 cells, read-out: Inhibition

molecule: CCn1c(=O)c2cc(S(N)(=O)=O)ccc2n(CC)c1=O
cytotoxicity at 70.5 h / %: -2.07

molecule: O=C(c1cscn1)N1CCN2C[C@H](OCc3cccnc3)C[C@H]2C1
cytotoxicity at 70.5 h / %: 20

molecule: COc1ccc(-c2nnc([C@H]3CCN(CC(C)(C)C)C3)o2)cc1
cytotoxicity at 70.5 h / %: -1.13

molecule: COCCN1CCOCC12CCN(c1nccs1)CC2
cytotoxicity at 70.5 h / %: -20.8

molecule: O=C(NCc1ccccc1F)C1=NOC2(CCNC2)C1 (stereo unspecified)
cytotoxicity at 70.5 h / %: -10.8

molecule: CN(C)C(=O)CC1CC2(CCN(Cc3ccsc3)CC2)c2ccccc21 (stereo unspecified)
cytotoxicity at 70.5 h / %: -16.8
